# Tested on: B. divergens
# assay-name: B. divergens growth in bovine erythrocyte cultures (flow cytometry parasitemia)
# Type: cell-based, Babesia divergens
# protocol-conditions: bovine erythrocyte cultures, 48 h, dose-response; listed as CPB
readout-name: pEC50
Entry type: numeric. Quantity: pEC50, the -log10 of concentration in molar units.

Incoming: # get_value(readout='pEC50', item= CCCCCC(=O)N[C@H](C(=O)N[C@@H](CCS(C)(=O)=O)C(=O)N[C@@H](CC(C)C)C(=O)[C@@]1(C)CO1)C(C)C )
Outgoing: 7.23
